Please consider the recorded Ki for Opioid KOR (Homo sapiens, UniProt P41145) in what follows.
The reply should contain only the number, in nM.

# example entries with known answers
>>> measured_value("CCN(CCCNC(=O)c1ccc(-c2ccncc2)cc1)CCNC(=O)c1cc(Br)cc(OC)c1OC [21c]")
642
>>> measured_value("CCCN(CCCNC(=O)c1ccc(-c2cccs2)cc1)CCNC(=O)c1cc(Br)cc(OC)c1OC [20a]")
116
>>> measured_value("CCN(CCCNC(=O)c1ccc(-c2cccs2)cc1)CCNC(=O)c1cc(Br)cc(OC)c1OC [9a]")
107

The reported Ki value, Opioid KOR (Homo sapiens, UniProt P41145), for CCN(CCCNC(=O)c1ccc(-c2ccsc2)cc1)CCNC(=O)c1cc(Br)cc(OC)c1OC [21g] reads 170

The recorded Ki with Opioid KOR (Homo sapiens, UniProt P41145) for CCN(CCCNC(=O)c1cc2ccccc2[nH]1)CCNC(=O)c1cc(Br)cc(OC)c1OC [21d] was 2330

----------
- system.tested: Serotonin 5-HT3 (Homo sapiens, UniProt P46098)
- Sequence (P46098 24-478): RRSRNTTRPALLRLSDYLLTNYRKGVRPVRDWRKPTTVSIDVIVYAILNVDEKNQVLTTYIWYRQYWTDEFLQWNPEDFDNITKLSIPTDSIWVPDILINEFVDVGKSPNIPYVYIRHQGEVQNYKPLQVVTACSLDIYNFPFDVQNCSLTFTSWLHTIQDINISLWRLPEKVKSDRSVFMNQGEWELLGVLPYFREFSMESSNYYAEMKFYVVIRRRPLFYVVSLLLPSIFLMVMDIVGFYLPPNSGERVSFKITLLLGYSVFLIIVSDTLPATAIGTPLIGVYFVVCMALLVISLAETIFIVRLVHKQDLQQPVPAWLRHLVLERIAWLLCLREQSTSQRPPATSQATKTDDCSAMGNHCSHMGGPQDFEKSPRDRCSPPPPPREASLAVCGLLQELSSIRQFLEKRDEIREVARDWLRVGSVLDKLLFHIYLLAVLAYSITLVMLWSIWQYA
Hi! Could you tag entries with Ki below 60 nM as condition met, and those at or above as condition not met? Much appreciated.

>>> class_name("CCN(CCCNC(=O)c1ccc2ccccc2c1)CCNC(=O)c1cc(Br)cc(OC)c1OC [21a]")
"condition met"
>>> class_name("CCN(CCCNC(=O)c1cc2ccccc2[nH]1)CCNC(=O)c1cc(Br)cc(OC)c1OC [21d]")
"condition not met"

Q) I wonder whether CCN(CCCNC(=O)c1ccc(-c2ccncc2)cc1)CCNC(=O)c1cc(Br)cc(OC)c1OC [21c] has Ki below 60 nM. Can you tell?
A) condition met

Q) Strictly below 60 nM in Ki? CCN(CCCNC(=O)c1cn2ccccc2n1)CCNC(=O)c1cc(Br)cc(OC)c1OC [21e]
A) condition not met

Q) Take the molecule CCN(CCCNC(=O)c1ccsc1)CCNC(=O)c1cc(Br)cc(OC)c1OC [21i] and say whether its Ki is less than 60 nM.
A) condition met

----------
- system.tested: human D3 receptors (Homo sapiens, UniProt P35462)
- Sequence (P35462 whole entry): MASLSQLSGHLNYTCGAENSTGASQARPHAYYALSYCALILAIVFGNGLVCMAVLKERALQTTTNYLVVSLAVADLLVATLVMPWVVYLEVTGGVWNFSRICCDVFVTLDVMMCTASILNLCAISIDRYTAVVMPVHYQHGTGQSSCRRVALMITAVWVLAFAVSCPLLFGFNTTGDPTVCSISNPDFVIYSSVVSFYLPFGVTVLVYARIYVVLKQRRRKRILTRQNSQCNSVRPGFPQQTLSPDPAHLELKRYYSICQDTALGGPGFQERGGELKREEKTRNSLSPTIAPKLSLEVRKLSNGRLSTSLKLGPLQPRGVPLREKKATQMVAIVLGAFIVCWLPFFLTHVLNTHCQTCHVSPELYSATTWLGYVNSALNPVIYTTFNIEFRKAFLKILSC
- assay.method.text: β-arrestin recruitment assay (antagonist mode, competition with dopamine)
- Assay type: cell-based
- Set-up: expressed in transfected cells
- experimental.setup: percentage of the maximum inhibition of dopamine at EC80 concentration; read-out: Imax (% Control)
value.kind: Emax (%)
Note: unit % is implicit; provide only the numeric part.

See these solved cases before continuing.
>>> measured_value("CCN(CCCNC(=O)c1cc2ccccc2n1C)CCNC(=O)c1cc(Br)cc(OC)c1OC [21j]")
81.5
>>> measured_value("CCN(CCCNC(=O)c1cc2ccccc2[nH]1)CCNC(=O)c1cc(Br)cc(OC)c1OC [21d]")
57.7
>>> measured_value("CCN(CCCNC(=O)c1ccsc1)CCNC(=O)c1cc(Br)cc(OC)c1OC [21i]")
99.6
>>> measured_value("CCN(CCCCCN(C)C)CCNC(=O)c1cc(Br)cc(OC)c1OC")
94
>>> measured_value("CCN(CCCNC(=O)c1cn2ccccc2n1)CCNC(=O)c1cc(Br)cc(OC)c1OC [21e]")
85.4

The compound identified as CCN(CCCNC(=O)c1cccc(N(C)C)c1)CCNC(=O)c1cc(Br)cc(OC)c1OC [21h] registered its Emax at 73.8

// Emax lookup, compound = CCN(CCCCCN(C)C)CCNC(=O)c1cc(CCCF)cc(OC)c1OC , result: 98.4

Value of measured Emax for the entry CCCN(CCCNC(=O)c1ccc(-c2cccs2)cc1)CCNC(=O)c1cc(Br)cc(OC)c1OC [20a] : 88.1

The compound listed as CCN(CCCNC(=O)c1ccnc2ccccc12)CCNC(=O)c1cc(Br)cc(OC)c1OC [21b] has a reported Emax of 75.2
